test: protein stability index of a GFP-peptide fusion (GPS, HEK-293T) (PSI 1-6); higher = more stable; settings: treatment: MLN4924 1 uM, 8 h; c terminus: a fixed tail appended;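 further: 24-mer peptide tiles fused after GFP, lentivirally expressed, FACS-sorted into six equal bins by GFP/DsRed ratio, decoded by Illumina sequencing, PSI is the read-weighted mean bin number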
Categorize each record by its protein stability index using low value: < 3; medium value: ≥ 3 and < 5; high value: ≥ 5

input_sequence: WEEWQFLSPAQKDLYRDVMLENYS [ZNF649]
group: medium value
//
input_sequence: PEQVQNEIKSMKKRMSELCIDFNK [NLN]
group: medium value
//
input_sequence: LEEAKKMEMAKFRYILPVYGICRE [RIPK4]
group: low value
//
input_sequence: TISVNQTRVNLSSDTESTDLPSST [DLC1]
group: medium value
//
input_sequence: AFFASHQCSNRIGSMKIKSSWDID [FBXO34]
group: low value
//
input_sequence: KVWDQVKASNPDLKLWEIGKIIGG [SMARCE1]
group: low value
//
input_sequence: RRSFLIEHQRSHTGERPHQCIECG [ZSCAN9]
group: medium value
//
input_sequence: STCFTELQRDFLKQRPTKLKSLIR [OAS1]
group: low value
//
input_sequence: GGLLTGNEKITMQNLNDRLASYLE [KRT13]
group: medium value
//
input_sequence: VDSLESHIPSQEVPGTQVGQGGKL [ZNF263]
group: high value
//
input_sequence: QMGVSAKRRPKAQPTTLVLPPQYV [MED27]
group: medium value
//
input_sequence: TSFLQHPWDESGSGCLPPEPLFEA [FOXJ1]
group: medium value
//
input_sequence: LSEEEKEELKAELVQLEDEITTLR [TPD52L1]
group: high value
//
input_sequence: FDETSSATTISTSEDGSYGTDVTR [KMT2E]
group: high value
//
input_sequence: PSDLDLVMSEGLGMRYAFIGPLET [CRYL1]
group: low value
//
input_sequence: SGSGGTVAPATMGSARSHASSRAS [ZBTB22]
group: medium value
//
input_sequence: GPSRSRHRRRSRERGPYRTRKHAH [CLK3]
group: medium value
//
input_sequence: ADSETPTIQKGSYTFVPWLLSFKR [TNFSF13B]
group: low value
//
input_sequence: LADSDTLSSAEENEPSQAETAVEG [C18orf25]
group: high value
//
input_sequence: KLQREMERREALCRQLSESESSLE [CCDC6]
group: medium value
//
input_sequence: KQAEICQLEEKLEIANEDRKHALE [CCDC89]
group: high value
//
input_sequence: DNEGNSALHIIVQYNRPISDFLTL [FEM1B]
group: low value
//
input_sequence: ADQTVLTEDEKKELENLAAMDLEL [CHGB]
group: high value
//
input_sequence: DHYQRVKREREKEDIALNKHRSRR [RHOBTB1]
group: medium value
//
input_sequence: HFKKTKKMGGKDFSFRYQQELEEE [ATL3]
group: medium value
